# Test Target: Mitogen-activated protein kinase 10 (Homo sapiens)
# Sequence (P53779 whole entry): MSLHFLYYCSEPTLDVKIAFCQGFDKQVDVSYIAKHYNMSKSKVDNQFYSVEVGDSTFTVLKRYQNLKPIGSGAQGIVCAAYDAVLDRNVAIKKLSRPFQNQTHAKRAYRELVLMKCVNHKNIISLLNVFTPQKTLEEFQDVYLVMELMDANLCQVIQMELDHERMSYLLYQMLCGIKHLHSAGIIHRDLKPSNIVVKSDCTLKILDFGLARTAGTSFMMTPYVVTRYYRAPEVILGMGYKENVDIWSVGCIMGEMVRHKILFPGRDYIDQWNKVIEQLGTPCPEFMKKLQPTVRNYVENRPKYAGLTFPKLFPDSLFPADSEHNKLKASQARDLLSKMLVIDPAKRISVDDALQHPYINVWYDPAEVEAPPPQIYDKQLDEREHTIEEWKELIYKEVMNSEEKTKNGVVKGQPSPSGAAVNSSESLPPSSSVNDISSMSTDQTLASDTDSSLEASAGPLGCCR
# Assay Comment: Binding affinity to JNK3 (unknown origin) assessed as inhibition constant
Measured Property: pKi
pKi is a log-scale quantity: -log10 of the concentration expressed in molar.

Consider the compound shown here: "CCn1c(-c2ccccc2-c2ccc(C)cc2C)nc2cc(C(=O)NC)ccc21" What is its recorded pKi?
8.92

----------
# Test Target: CREB-binding protein (Homo sapiens)
# Sequence (Q92793 whole entry): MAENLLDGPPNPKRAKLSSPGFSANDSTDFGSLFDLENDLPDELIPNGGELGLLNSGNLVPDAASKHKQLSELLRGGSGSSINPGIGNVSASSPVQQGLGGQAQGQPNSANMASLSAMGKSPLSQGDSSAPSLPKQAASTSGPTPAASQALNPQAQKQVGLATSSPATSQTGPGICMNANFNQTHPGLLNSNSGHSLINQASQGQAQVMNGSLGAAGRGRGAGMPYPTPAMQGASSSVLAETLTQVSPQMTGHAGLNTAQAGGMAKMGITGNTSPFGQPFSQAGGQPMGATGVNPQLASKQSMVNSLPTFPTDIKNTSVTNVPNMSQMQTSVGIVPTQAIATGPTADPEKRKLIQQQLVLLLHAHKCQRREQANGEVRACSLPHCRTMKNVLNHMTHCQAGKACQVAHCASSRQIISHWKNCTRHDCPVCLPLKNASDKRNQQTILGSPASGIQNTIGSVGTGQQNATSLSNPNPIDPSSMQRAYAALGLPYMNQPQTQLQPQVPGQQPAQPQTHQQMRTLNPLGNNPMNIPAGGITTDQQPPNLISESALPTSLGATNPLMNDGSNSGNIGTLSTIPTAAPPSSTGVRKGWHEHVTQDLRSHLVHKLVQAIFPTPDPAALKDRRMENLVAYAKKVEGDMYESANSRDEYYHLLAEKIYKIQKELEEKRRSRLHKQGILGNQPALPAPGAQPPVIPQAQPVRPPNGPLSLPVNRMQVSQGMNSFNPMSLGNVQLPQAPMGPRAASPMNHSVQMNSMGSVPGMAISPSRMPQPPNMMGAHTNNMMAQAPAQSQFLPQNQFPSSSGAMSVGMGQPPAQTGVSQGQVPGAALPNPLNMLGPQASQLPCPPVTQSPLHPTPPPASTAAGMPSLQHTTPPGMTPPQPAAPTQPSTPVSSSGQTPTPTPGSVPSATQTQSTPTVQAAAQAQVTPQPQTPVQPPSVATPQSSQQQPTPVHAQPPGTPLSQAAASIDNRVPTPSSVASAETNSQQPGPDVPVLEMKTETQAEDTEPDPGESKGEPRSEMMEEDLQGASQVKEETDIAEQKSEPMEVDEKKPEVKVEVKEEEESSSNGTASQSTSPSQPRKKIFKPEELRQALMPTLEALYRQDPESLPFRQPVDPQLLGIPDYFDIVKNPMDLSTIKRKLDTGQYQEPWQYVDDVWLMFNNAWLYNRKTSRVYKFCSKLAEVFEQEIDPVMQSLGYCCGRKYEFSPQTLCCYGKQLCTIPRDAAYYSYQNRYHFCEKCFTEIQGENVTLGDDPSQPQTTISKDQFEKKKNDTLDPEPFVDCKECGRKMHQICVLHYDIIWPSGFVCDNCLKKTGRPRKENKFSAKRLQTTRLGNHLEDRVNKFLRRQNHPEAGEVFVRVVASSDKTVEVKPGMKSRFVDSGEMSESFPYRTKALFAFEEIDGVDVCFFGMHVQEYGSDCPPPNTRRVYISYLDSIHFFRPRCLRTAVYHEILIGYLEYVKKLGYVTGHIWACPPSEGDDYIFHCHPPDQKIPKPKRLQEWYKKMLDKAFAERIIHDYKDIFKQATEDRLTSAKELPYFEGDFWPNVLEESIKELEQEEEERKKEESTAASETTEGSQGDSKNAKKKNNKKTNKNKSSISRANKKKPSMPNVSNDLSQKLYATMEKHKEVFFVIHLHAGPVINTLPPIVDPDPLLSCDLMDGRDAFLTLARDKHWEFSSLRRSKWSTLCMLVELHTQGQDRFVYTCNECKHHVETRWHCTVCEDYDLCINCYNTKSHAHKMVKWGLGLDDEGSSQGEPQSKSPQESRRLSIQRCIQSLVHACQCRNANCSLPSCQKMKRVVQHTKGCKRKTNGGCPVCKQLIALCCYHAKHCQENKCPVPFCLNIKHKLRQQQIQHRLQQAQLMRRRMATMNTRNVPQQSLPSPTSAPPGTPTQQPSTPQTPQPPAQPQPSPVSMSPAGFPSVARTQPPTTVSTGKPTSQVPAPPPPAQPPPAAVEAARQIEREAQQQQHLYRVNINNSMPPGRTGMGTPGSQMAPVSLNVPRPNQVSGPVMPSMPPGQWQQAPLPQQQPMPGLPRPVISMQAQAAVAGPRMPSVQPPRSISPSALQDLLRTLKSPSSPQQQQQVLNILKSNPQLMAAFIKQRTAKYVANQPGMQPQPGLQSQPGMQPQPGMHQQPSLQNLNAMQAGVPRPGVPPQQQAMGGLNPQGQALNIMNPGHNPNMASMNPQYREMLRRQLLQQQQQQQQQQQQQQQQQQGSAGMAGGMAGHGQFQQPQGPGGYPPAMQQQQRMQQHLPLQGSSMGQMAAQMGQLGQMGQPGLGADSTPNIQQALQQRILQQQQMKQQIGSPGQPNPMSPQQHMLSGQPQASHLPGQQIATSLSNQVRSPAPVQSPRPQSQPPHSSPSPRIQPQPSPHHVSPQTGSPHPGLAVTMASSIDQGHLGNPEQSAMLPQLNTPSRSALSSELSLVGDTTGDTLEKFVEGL
Measured Property: pIC50
On this scale, pIC50 is minus log10 of a concentration expressed in M (mol/L).

What measured pIC50 is associated with "C[C@@H]1CC(=O)Cc2cccc(C(=O)NCCNC(=O)CSC(=S)c3ccccc3)c2N1" on CREB-binding protein (Homo sapiens)?
4.77
